These measurements were taken from PubChem BioAssay (NCI).

- Tested on: SNB-75 CNS
- assay_text: NCI tumour cell line growth inhibition, 48 h
measure_name: TGI

The examples below pair each entry with its known result.
COc1cc2c(cc1OC)CN1CCc3ccccc3CC1C2 (centres undefined)	> 100 µM
CCCCC1=CC1(C#N)[N+](=O)[O-] (centres undefined)	> 100 µM
Nc1ccc(-c2nc3ccccc3s2)cc1I	99.4 µM

// switching to the query molecule
// TGI lookup, key: O=c1[nH]cnc2c1ncn2C1SC(CO)C(O)C1O (centres undefined) > 100 µM

* * *

- Test system: OVCAR-3 ovarian
- assay_text: NCI tumour cell line growth inhibition, 48 h
Where a SMILES comes first, the peptide text is derived from it. [ ]: non-standard residue; d: D form. The star is where a group is joined. ξ: configuration not given here. ξW = NC(Cc1c[nH]c2ccccc12)C(=O)O; X30 = O=C(O)[C@H]1CCC[C@H]1N*; ξF = NC(Cc1ccccc1)C(=O)O; Boc = CC(C)(C)OC(=O)*; ξK = NCCCCC(N)C(=O)O; ξT = CC(O)C(N)C(=O)O; tBu = CC(C)(C)*
measure_name: TGI

Check out these entries, answers already filled in.
Cc1ccc(N=Nc2c(C)nn(C(=O)CC(=O)Nc3ccc(Cl)cc3)c2C)cc1C	> 100 µM
CCN1C(=O)C(N=[N+]=[N-])(c2ccccc2)C(=O)c2ccccc21 (configuration not stated)	> 100 µM
CC(OC(C)(C)C)C(NC(=O)C(CCCCNC(=O)OC(C)(C)C)NC(=O)C(Cc1c[nH]c2ccccc12)NC(=O)C(N)Cc1ccccc1)C(=O)NC(Cc1ccccc1)C(=O)N[C@@H]1CCC[C@@H]1C(=O)O (some centres not stated) (H-[ξF][ξW][ξK](Boc)[ξT](tBu)[ξF]-X30)	> 100 µM
Cc1ccc(C(CC(=O)c2ccccc2)C(C(=O)c2ccccc2)C(c2ccc(C)cc2)C2C(=O)NC(=S)NC2=O)cc1 (configuration not stated)	> 50 µM
CN(C)C(=O)C(F)(F)C(c1ccc(C(F)(F)F)cc1)C1C(=O)N(C)C(=O)N(C)C1=O (configuration not stated)	> 100 µM
Nc1nc(Sc2ccc([N+](=O)[O-])cn2)c2[nH]cnc2n1	> 75 µM
CO[C@]12CCC(=O)N1C=Cc1c2[nH]c2ccccc12	> 100 µM
[O]=[W](=[O])([OH])[OH]	> 100 µM
N#C/C(=C\c1ccc([N+](=O)[O-])s1)c1nc2cc(Br)ccc2s1	0.733 µM
COc1cc(O)c2c(c1O)C(=O)c1cc(C)ncc1C2=O	45.9 µM

For each listed entry, give its TGI.
1. C=CCCCCn1c2ccccc2c2c(C)c3c[n+](C)ccc3c(C)c21
2. CNC(=O)c1c(NC(=O)c2ccc(C(C)C)cc2)sc2c1CCC(=O)C2

["1.52 µM", "1.57 µM"]

* * *

- System: SF-268 CNS
- assay_text: NCI tumour cell line growth inhibition, 48 h
Where a SMILES comes first, the peptide text is derived from it. The star is where a group is joined. Boc = CC(C)(C)OC(=O)*; OBn = c1ccc(CO*)cc1
measure_name: TGI

Here's what some known entries look like.
Cc1ccc(N=Nc2c(C)nn(C(=O)CC(=O)Nc3ccc(Cl)cc3)c2C)cc1C	> 100 µM
O=C(Nc1ccc(N2C(=O)CSC2c2cccs2)cc1)c1ccc(N2C(=O)CSC2c2cccs2)cc1 (stereo not given)	> 100 µM
CCOC(=O)/C(=C/c1ccc(Cl)cc1)N(CC)CC	> 100 µM
CCCCCCCCCCCCCCCCNc1ccc2c(c1)OCCOCCOCCOCCO2	11.9 µM
O=C1c2ccccc2-n2c1nc1cc(Cl)ccc1c2=O	> 100 µM
CCN(CC)C(=O)N[C@@H](Cc1ccccc1)C(=O)NC	> 100 µM
O=C(Oc1ccc(OC(Oc2ccccc2)c2ccccc2)cc1)c1ccccc1 (stereo not given)	23 µM
Nc1nc(Sc2ccc([N+](=O)[O-])cn2)c2[nH]cnc2n1	> 100 µM
C[CH2][Sn]([Cl])([CH2]C)[CH2]C	7.94 µM
CSC1CC2C(CC1(C)SC)C2(C)C (stereo not given)	> 100 µM

// batch mode: one TGI value per listed entry
1. N#Cc1nc(Nc2ccc(Cl)cc2)sc1N
2. CCN1C(=O)C(N=[N+]=[N-])(c2ccccc2)C(=O)c2ccccc21 (stereo not given)
3. CC(C)C(NC(=O)CNC(=O)C1CCCN1C(=O)C(NC(=O)OC(C)(C)C)C(C)C)C(=O)NCC(=O)OCc1ccccc1 (stereo not given) (Boc-VPGVG-OBn; configuration not given here)
4. Cc1ccc(C(O)/C(=N/N)c2nc3ccc([N+](=O)[O-])cc3[nH]c2=O)cc1 (stereo not given)
5. O=C(O)c1nc2cc(C(F)(F)F)ccc2[nH]c1=O
6. Cc1[nH]c2ccccc2c1C1=CC(=O)C=CC1=O
7. Cc1cccc2c1NC(=O)C2(c1ccc(O)cc1)c1ccc(O)cc1
8. Cc1ccc(Nc2cc(=O)[nH]c(=O)[nH]2)cc1CS

["> 77.9 µM", "> 100 µM", "> 100 µM", "> 100 µM", "> 100 µM", "27.4 µM", "> 100 µM", "> 100 µM"]

Quick batch: TGI for everything below.
1. CN1CCc2cc(O)c3cc2C1Cc1ccc(cc1)Oc1cc(ccc1O)CC1c2c(cc4c(c2O3)OCO4)CCN1C (stereo not given)
2. COCO[C@@H]1CC2C=Nc3cc(OCc4ccccc4)c(OC)cc3C(=O)N2C1 (stereo not given in full)
3. O=C(Nc1ccc(Cl)cc1F)c1cc(Cl)ccc1O

1: > 100 µM; 2: 9.31 µM; 3: > 27.6 µM

* * *

- Tested on: UO-31 renal
- assay_text: NCI tumour cell line growth inhibition, 48 h
measure_name: TGI

The examples below pair each entry with its known result.
COc1cc(CCNc2nc3cc(N)cc(N)c3nc2-c2ccccc2)cc(OC)c1	3.78 µM
O=C(Nc1cccc(-n2cc(-c3ccncc3)c(-c3ccc(O)c(Cl)c3)n2)c1)c1ccc(N2CCOCC2)c(C(F)(F)F)c1	> 50 µM
C/C=C(\C)C(=O)OC1C2C(C)C(=O)OC2C(O)C(C)C2C=CC(=O)C21C (configuration not stated)	32.8 µM
Cc1ccc(C(CC(=O)c2ccccc2)C(C(=O)c2ccccc2)C(c2ccc(C)cc2)C2C(=O)NC(=S)NC2=O)cc1 (configuration not stated)	29.3 µM
CS(=O)(=O)c1ccc(-c2[nH]c3ccc(F)cc3c2/C=N/NC(N)=S)cc1	> 100 µM
COc1ccc(/C(Cl)=C(\CNc2ccccn2)c2ccccc2)cc1OC	> 100 µM

# next compound below
// TGI lookup, key: O=[N+]([O-])c1cc(C(F)(F)F)ccc1S(=O)(=O)N[C@@H]1CCCC[C@H]1NS(=O)(=O)c1ccc(C(F)(F)F)cc1[N+](=O)[O-] > 23.2 µM

* * *

- Tested on: CCRF-CEM leukemia
- assay_text: NCI tumour cell line growth inhibition, 48 h
Provide the recorded TGI for the entries that follow.

A selection of reference data follows.
CCN(CC)c1nc(=O)c(C(=O)C(C)(C)C)c(C(C)(C)C)o1	> 100 µM
COCO[C@@H]1CC2C=Nc3cc(OCc4ccccc4)c(OC)cc3C(=O)N2C1 (stereo not given in full)	21.6 µM
COc1cc(CCNc2nc3cc(N)cc(N)c3nc2-c2ccccc2)cc(OC)c1	6.48 µM
Cc1ccc(C(O)/C(=N/N)c2nc3ccc([N+](=O)[O-])cc3[nH]c2=O)cc1 (stereo not given)	> 100 µM

Hey, quick one: what's TGI for each of these?
1. Cc1ccc(S(=O)(=O)NC(=O)C#CCOC2CCCCO2)cc1 (stereo not given)
2. N#Cc1nc(C2SCCCS2)oc1N
3. CC(=O)OC1CC(C)c2c(Cl)ncnc21 (stereo not given)

1: > 100 µM; 2: > 100 µM; 3: > 100 µM

* * *

- System: IGROV1 ovarian
- assay_text: NCI tumour cell line growth inhibition, 48 h
measure_name: TGI

Consider the following illustrative entries.
COCO[C@@H]1CC2C=Nc3cc(OCc4ccccc4)c(OC)cc3C(=O)N2C1 (stereo partly specified)	20.5 µM
O=C1C(Cl)C(c2cccc(Br)c2)N1c1c(O)c(Cl)cc(Br)c1Cl (stereo unspecified)	10.7 µM
O=C(/C=C/c1cccs1)c1ccc(Cl)s1	> 10 µM
O=C1Cc2c(-c3ccccc3)cc(-c3ccc4ccccc4c3)nc2-c2ccccc2N1	11.9 µM
CCc1cccc(CC)c1NC(=O)c1ccn2c1CCc1cnc(Nc3ccc(N4CCN(C)CC4)cc3OC)nc1-2	19.4 µM
ClCCCC1COc2ccccc2O1 (stereo unspecified)	> 100 µM
c1ccc(C2=NN[C@H](c3cn(-c4ccccc4)nc3-c3ccccc3)C2)cc1	> 100 µM
COC(=O)C1CCC[C@H]2C(CO)=C(C)C(=O)[C@@H]12 (stereo partly specified)	> 100 µM

Need TGI for each of these compounds.
1. CCOC(=O)NC(C(C(=O)OCC)C(=O)OCC)(C(F)(F)F)C(F)(F)F
2. COc1ccc(N2C(=O)C3c4[nH]c5cc(Cl)ccc5c4C4CCC(C(C)(C)C)CC4C3C2=O)cc1 (stereo unspecified)
3. CS(=O)(=O)c1ccc(-c2[nH]c3ccc(F)cc3c2/C=N/NC(N)=S)cc1

> 100 µM
> 100 µM
> 100 µM
